target under test: human CTLA-4 (human) (UniProt P16410)
Sequence (P16410 36-223): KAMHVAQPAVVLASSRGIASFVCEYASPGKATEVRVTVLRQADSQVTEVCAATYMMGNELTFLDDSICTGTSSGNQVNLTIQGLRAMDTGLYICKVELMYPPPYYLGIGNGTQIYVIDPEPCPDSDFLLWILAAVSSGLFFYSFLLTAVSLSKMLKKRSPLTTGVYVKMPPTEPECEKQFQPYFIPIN
test details: flow cytometry, CHO cells expressing huCTLA4
# MFI at 33.3 nM per entry
Report the figure in MFI without appending any unit label.

Worked cases, answers included:
{"binder": "variant CD80 IgV-Fc E35D/D46E/M47V/V68M/D90G/K93E (Fc fusion) VIHVTKEVKEVATLSCGHNVSVEELAQTRIYWQKDKKMVLTMMSGEVNIWPEYKNRTIFDITNNLSIMILALRPSDEGTYECVVLKYEKGAFEREHLAEVTLSVKAD", "MFI at 33.3 nM (MFI)": 273000}
{"binder": "variant CD80 IgV-Fc E35D/A71G (Fc fusion) VIHVTKEVKEVATLSCGHNVSVEELAQTRIYWQKDKKMVLTMMSGDMNIWPEYKNRTIFDITNNLSIVILGLRPSDEGTYECVVLKYEKDAFKREHLAEVTLSVKAD", "MFI at 33.3 nM (MFI)": 184000}
{"binder": "variant CD80 IgV-Fc E35D/M47I/T62S/L85Q (Fc fusion) VIHVTKEVKEVATLSCGHNVSVEELAQTRIYWQKDKKMVLTMMSGDINIWPEYKNRTIFDISNNLSIVILALRPSDEGTYECVVQKYEKDAFKREHLAEVTLSVKAD", "MFI at 33.3 nM (MFI)": 301000}

Q: Quick one: give measured MFI at 33.3 nM for variant CD80 IgV-Fc Q33L/E35D/M47I/N48D/A71G (Fc fusion) VIHVTKEVKEVATLSCGHNVSVEELAQTRIYWLKDKKMVLTMMSGDIDIWPEYKNRTIFDITNNLSIVILGLRPSDEGTYECVVLKYEKDAFKREHLAEVTLSVKAD
A: 117000
